assay.explanation: In vivo pharmacokinetics in rats
Set-up: species or system Male Wistar rats
condition.parameters: male, Wistar, rat, plasma, sc, 200 ug/kg
measure: AUC(0-inf) (ng·h/mL)
Write the answer as a number in ng·h/mL, unit excluded.

**Q:** What does the data say about its AUC(0-inf)? Entry: "CO[C@H]1O[C@H](COS(=O)(=O)O)[C@@H](O[C@@H]2O[C@@H](C(=O)O)[C@@H](O[C@H]3O[C@H](COS(=O)(=O)O)[C@@H](O[C@@H]4O[C@H](C(=O)O)[C@@H](O[C@H]5O[C@H](COS(=O)(=O)O)[C@@H](O)[C@H](O)[C@H]5NS(=O)(=O)O)[C@H](O)[C@H]4O)[C@H](OS(=O)(=O)O)[C@H]3NS(=O)(=O)O)[C@H](O)[C@H]2OS(=O)(=O)O)[C@H](O)[C@H]1NS(=O)(=O)O"
**A:** 2570

* * *

assay.explanation: In vivo pharmacokinetics in rats
Set-up: species or system Male Wistar rats
condition.parameters: male, Wistar, rat, plasma, po, 5 mg/kg
measure: AUC(0-inf) (ng·h/mL)
Write down the numeric answer in ng·h/mL and omit the unit.

**Q:** What AUC(0-inf) value was documented for this molecule, CO[C@H]1O[C@H](COS(=O)(=O)O)[C@@H](O[C@@H]2O[C@@H](C(=O)O)[C@@H](O[C@H]3O[C@H](COS(=O)(=O)O)[C@@H](O[C@@H]4O[C@H](C(=O)O)[C@@H](O[C@H]5O[C@H](COS(=O)(=O)O)[C@@H](O)[C@H](O)[C@H]5NS(=O)(=O)O)[C@H](O)[C@H]4O)[C@H](OS(=O)(=O)O)[C@H]3NS(=O)(=O)O)[C@H](O)[C@H]2OS(=O)(=O)O)[C@H](O)[C@H]1NS(=O)(=O)O [Fp, fondaparinux] ?
**A:** 812

* * *

assay.explanation: In vivo pharmacokinetics in rats
Parameters: species or system Male Wistar rats
condition.parameters: male, Wistar, rat, plasma, iv, 200 ug/kg, Absolute bioavailability, IV bolus, 200 μg/kg (reference)
measure: bioavailability (%)
Give your result in % as a bare value.

**Q:** Give the measured bioavailability of "CO[C@H]1O[C@H](COS(=O)(=O)O)[C@@H](O[C@@H]2O[C@@H](C(=O)O)[C@@H](O[C@H]3O[C@H](COS(=O)(=O)O)[C@@H](O[C@@H]4O[C@H](C(=O)O)[C@@H](O[C@H]5O[C@H](COS(=O)(=O)O)[C@@H](O)[C@H](O)[C@H]5NS(=O)(=O)O)[C@H](O)[C@H]4O)[C@H](OS(=O)(=O)O)[C@H]3NS(=O)(=O)O)[C@H](O)[C@H]2OS(=O)(=O)O)[C@H](O)[C@H]1NS(=O)(=O)O" .
**A:** 100

* * *

assay.explanation: In vivo pharmacokinetics in rats
Set-up: species or system Male Wistar rats
condition.parameters: male, Wistar, rat, plasma, iv, 200 ug/kg, Tmax average, IV bolus
measure: Tmax (min)
Numbers only; they are read as min.

**Q:** What measured Tmax goes with "CO[C@H]1O[C@H](COS(=O)(=O)O)[C@@H](O[C@@H]2O[C@@H](C(=O)O)[C@@H](O[C@H]3O[C@H](COS(=O)(=O)O)[C@@H](O[C@@H]4O[C@H](C(=O)O)[C@@H](O[C@H]5O[C@H](COS(=O)(=O)O)[C@@H](O)[C@H](O)[C@H]5NS(=O)(=O)O)[C@H](O)[C@H]4O)[C@H](OS(=O)(=O)O)[C@H]3NS(=O)(=O)O)[C@H](O)[C@H]2OS(=O)(=O)O)[C@H](O)[C@H]1NS(=O)(=O)O" ?
**A:** 2

* * *

assay.explanation: In vivo pharmacokinetics in rats
Parameters: species or system Male Wistar rats
condition.parameters: male, Wistar, rat, plasma, po, 5 mg/kg, Tmax average, 5 mg/kg Fp
measure: Tmax (h)
Lab book: enter the figure in h, no units written.

**Q:** May I ask what Tmax has been recorded for CO[C@H]1O[C@H](COS(=O)(=O)O)[C@@H](O[C@@H]2O[C@@H](C(=O)O)[C@@H](O[C@H]3O[C@H](COS(=O)(=O)O)[C@@H](O[C@@H]4O[C@H](C(=O)O)[C@@H](O[C@H]5O[C@H](COS(=O)(=O)O)[C@@H](O)[C@H](O)[C@H]5NS(=O)(=O)O)[C@H](O)[C@H]4O)[C@H](OS(=O)(=O)O)[C@H]3NS(=O)(=O)O)[C@H](O)[C@H]2OS(=O)(=O)O)[C@H](O)[C@H]1NS(=O)(=O)O [Fp, fondaparinux] ?
**A:** 2

* * *

assay.explanation: In vivo pharmacokinetics in rats
Parameters: species or system Male Wistar rats
condition.parameters: male, Wistar, rat, plasma, iv, 200 ug/kg
measure: Cmax

**Q:** # lookup: Cmax of "CO[C@H]1O[C@H](COS(=O)(=O)O)[C@@H](O[C@@H]2O[C@@H](C(=O)O)[C@@H](O[C@H]3O[C@H](COS(=O)(=O)O)[C@@H](O[C@@H]4O[C@H](C(=O)O)[C@@H](O[C@H]5O[C@H](COS(=O)(=O)O)[C@@H](O)[C@H](O)[C@H]5NS(=O)(=O)O)[C@H](O)[C@H]4O)[C@H](OS(=O)(=O)O)[C@H]3NS(=O)(=O)O)[C@H](O)[C@H]2OS(=O)(=O)O)[C@H](O)[C@H]1NS(=O)(=O)O"
**A:** 1420 ng/mL

* * *

assay.explanation: In vivo pharmacokinetics in rats
Parameters: species or system Male Wistar rats
condition.parameters: male, Wistar, rat, plasma, po, 5 mg/kg
measure: Cmax

**Q:** If you can, please state the reported Cmax value of CO[C@H]1O[C@H](COS(=O)(=O)O)[C@@H](O[C@@H]2O[C@@H](C(=O)O)[C@@H](O[C@H]3O[C@H](COS(=O)(=O)O)[C@@H](O[C@@H]4O[C@H](C(=O)O)[C@@H](O[C@H]5O[C@H](COS(=O)(=O)O)[C@@H](O)[C@H](O)[C@H]5NS(=O)(=O)O)[C@H](O)[C@H]4O)[C@H](OS(=O)(=O)O)[C@H]3NS(=O)(=O)O)[C@H](O)[C@H]2OS(=O)(=O)O)[C@H](O)[C@H]1NS(=O)(=O)O [Fp, fondaparinux] .
**A:** 60 ng/mL
